Reference source: PubChem BioAssay (NCI)

Could you please report measured TGI for the items listed next?
# Test system: LXFL 529 NSCLC
# assay_procedure: NCI tumour cell line growth inhibition, 48 h

Param request: TGI | system LXFL 529 NSCLC | item CCOC(=O)NC(=O)c1cn(CCOC(=O)CCCCCCCCC(=O)OCCn2cc(C(=O)NC(=O)OCC)c(=O)[nH]c2=O)c(=O)[nH]c1=O
> 100 µM

Retrieve TGI on LXFL 529 NSCLC; query C[C@]12C=CC(=O)C=C1CC[C@@H]1[C@@H]2CC[C@]2(C)OC(=O)CC[C@@H]12
> 500 µM

State TGI on LXFL 529 NSCLC. Entry: Oc1c(C(Nc2cccc3cccnc23)c2ccccc2)ccc2cccnc12 (stereo not given)
> 100 µM

Answer with TGI of CC1=NN(C(=O)c2ccccc2O)C(=O)/C1=C/c1ccco1 measured for LXFL 529 NSCLC.
> 100 µM

Provide LXFL 529 NSCLC TGI reading for CCC[CH2][Sn]1([CH2]CCC)[O]C(=O)c2cccnc2[O]1 .
2.22 µM
